Ref: patent US20230365589A1

compounds and their reported pIC50
# ASSAY_TARGET: DYRK1A (Homo sapiens)
# Construct: purchased Carna Biosciences, Inc. 04-130
# PROTOCOL_NOTES: Inhibition test on activity of DYRK family, mobility shift assay (MSA): DYRK1A
# Type: biochemical
# ASSAY_CONTEXT: MSA, FITC-labeled DYRKtide peptide, ATP 100 μM; read-out: Inhibitory activity DYRK 1A (IC50 class)
pIC50: −log10 of the molar value.
ENDPOINT_NAME: pIC50

COMPOUND	ENDPOINT_NAME	RESULT
C[C@H]1NC(=O)N(c2nc3c4c(ccc3s2)OCC4)[C@@H]1CN(C)C [Example 22]	pIC50	6.00 to 7.00
CN1CC[C@H]2NC(=O)N(c3nc4c5c(ccc4s3)OCC5)[C@H]2C1 (single isomer, unassigned) [Example 27]	pIC50	≤ 6.00
O=C1N[C@H]2COC[C@H]2N1c1nc2c3c(ccc2s1)OCC3 [Example 65]	pIC50	> 8.00
CN1CC[C@@H]2NC(=O)N(c3nc4c5c(ccc4s3)OCO5)[C@@H]2C1 (racemic) [Example 79]	pIC50	7.00 to 8.00

###

molecules and their reported IC50
# ASSAY_TARGET: DYRK2 (Homo sapiens, UniProt Q92630)
# Construct: purchased Carna Biosciences, Inc. 04-132
# Sequence (Q92630 74-601 limits assumed): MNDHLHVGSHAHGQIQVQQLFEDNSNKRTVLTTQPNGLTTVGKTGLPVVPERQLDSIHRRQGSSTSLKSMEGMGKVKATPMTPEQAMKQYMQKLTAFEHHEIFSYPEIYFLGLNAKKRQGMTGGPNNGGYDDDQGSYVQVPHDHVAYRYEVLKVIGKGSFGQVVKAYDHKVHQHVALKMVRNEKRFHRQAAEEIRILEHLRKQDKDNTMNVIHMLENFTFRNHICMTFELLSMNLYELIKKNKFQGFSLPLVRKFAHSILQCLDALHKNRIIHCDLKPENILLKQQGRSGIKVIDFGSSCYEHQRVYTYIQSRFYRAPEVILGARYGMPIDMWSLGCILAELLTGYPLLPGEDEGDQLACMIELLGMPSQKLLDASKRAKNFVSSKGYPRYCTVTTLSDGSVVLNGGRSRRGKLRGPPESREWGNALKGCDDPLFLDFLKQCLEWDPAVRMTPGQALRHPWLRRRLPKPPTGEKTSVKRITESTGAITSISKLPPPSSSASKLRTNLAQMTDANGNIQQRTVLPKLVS
# PROTOCOL_NOTES: Inhibition test on activity of DYRK family, mobility shift assay (MSA): DYRK2
# Format: biochemical
# ASSAY_CONTEXT: read-out: Inhibitory activity DYRK 2

MOLECULE	IC50
O=C1N[C@H]2COCC[C@H]2N1c1nc2c3c(ccc2s1)OCC3 [Example 122]	100 to 1000 nM
CO[C@H]1C[C@@H]2[C@H](CO1)NC(=O)N2c1nc2c3c(ccc2s1)OCC3	100 to 1000 nM
O=C1N[C@H]2CCN(CC(F)(F)F)C[C@H]2N1c1nc2c3c(ccc2s1)OCC3 (racemic)	≥ 1000 nM
O=C1N[C@@H]2COCC[C@H]2N1c1nc2c3c(ccc2s1)OCC3	100 to 1000 nM
N#CCN1CC[C@@H]2NC(=O)N(c3nc4c5c(ccc4s3)OCC5)[C@@H]2C1 (single isomer, unassigned) [Example 112]	≥ 1000 nM
CC1(C)C[C@H]2[C@@H](CO1)NC(=O)N2c1nc2c3c(ccc2s1)OCC3	≥ 1000 nM
C[C@H]1[C@@H]2[C@H](CCN1C)NC(=O)N2c1nc2c3c(ccc2s1)OCC3	≥ 1000 nM
C#CCN1CC[C@H]2NC(=O)N(c3nc4c5c(ccc4s3)OCC5)[C@H]2C1 (single isomer, unassigned)	≥ 1000 nM
C[C@@H]1C[C@@H]2NC(=O)N(c3nc4c5c(ccc4s3)OCC5)[C@@H]2CN1C	≥ 1000 nM
O=C1N[C@H]2CCN(C3CC3)C[C@H]2N1c1nc2c3c(ccc2s1)OCC3 (single isomer, unassigned) [Example 110]	≥ 1000 nM
O=C1N[C@H]2CCOC[C@H]2N1c1nc2c3c(ccc2s1)OCC3 (racemic)	100 to 1000 nM
O=C1N[C@@H]2CCN(C3CC3)C[C@@H]2N1c1nc2c3c(ccc2s1)OCC3 (single isomer, unassigned)	≥ 1000 nM
C#CCN1CC[C@@H]2NC(=O)N(c3nc4c5c(ccc4s3)OCC5)[C@@H]2C1 (racemic) [Example 99]	100 to 1000 nM
C[C@@H]1NC(=O)N(c2nc3c4c(ccc3s2)OCC4)[C@@H]1CN1CC[C@H](F)C1	100 to 1000 nM
N#CCN1CC[C@@H]2NC(=O)N(c3nc4c5c(ccc4s3)OCC5)[C@@H]2C1 (racemic) [Example 100]	≥ 1000 nM

###

# ASSAY_TARGET: DYRK1A (Homo sapiens, UniProt Q13627)
# Construct: purchased Carna Biosciences, Inc. 04-130
# PROTOCOL_NOTES: Inhibition test on activity of DYRK family, mobility shift assay (MSA): DYRK1A
# Assay type: biochemical
# ASSAY_CONTEXT: read-out: Inhibitory activity DYRK 1A
ENDPOINT_NAME: IC50

COMPOUND	ENDPOINT_NAME	RESULT
N#C[C@H]1C[C@@H]2[C@H](CO1)NC(=O)N2c1nc2c3c(ccc2s1)OCO3 [Example 131]	IC50	< 10 nM
CC1(C)C[C@H]2[C@@H](CO1)NC(=O)N2c1nc2c3c(ccc2s1)OCC3 [Example 123]	IC50	≥ 1000 nM
N#CCN1C[C@@H]2NC(=O)N(c3nc4c5c(ccc4s3)OCC5)[C@@H]2C1 (racemic) [Example 103]	IC50	10 to 100 nM
N#C[C@H]1C[C@H]2NC(=O)N(c3nc4c5c(ccc4s3)OCC5)[C@H]2CO1 [Example 128]	IC50	≥ 1000 nM
O=C1N[C@H]2CCCN(C3CC3)C[C@H]2N1c1nc2c3c(ccc2s1)OCC3 (racemic) [Example 104]	IC50	< 10 nM
CO[C@H]1C[C@H]2NC(=O)N(c3nc4c5c(ccc4s3)OCC5)[C@H]2CO1 [Example 130]	IC50	100 to 1000 nM
N#C[C@H]1C[C@H]2NC(=O)N(c3nc4c5c(ccc4s3)OCO5)[C@H]2CO1 [Example 132]	IC50	≥ 1000 nM
O=C1N[C@H]2CCN(C3CC3)C[C@H]2N1c1nc2c3c(ccc2s1)OCC3 (racemic) [Example 98]	IC50	< 10 nM
O=C1N[C@H]2CCOC[C@H]2N1c1nc2c3c(ccc2s1)OCC3 (racemic) [Example 120]	IC50	10 to 100 nM
C[C@H]1[C@H]2[C@@H](CCN1C)NC(=O)N2c1nc2c3c(ccc2s1)OCC3 [Example 95]	IC50	100 to 1000 nM
C[C@@H]1[C@@H]2NC(=O)N(c3nc4c5c(ccc4s3)OCC5)[C@@H]2CCN1C [Example 97]	IC50	100 to 1000 nM
C#CCN1C[C@@H]2NC(=O)N(c3nc4c5c(ccc4s3)OCC5)[C@@H]2C1 (racemic) [Example 102]	IC50	10 to 100 nM
O=C1N[C@H]2CCN(CC(F)(F)F)C[C@H]2N1c1nc2c3c(ccc2s1)OCC3 (racemic) [Example 107]	IC50	10 to 100 nM
CC1(C)C[C@@H]2[C@H](CO1)NC(=O)N2c1nc2c3c(ccc2s1)OCC3 [Example 124]	IC50	< 10 nM
N#CCN1CCC[C@@H]2NC(=O)N(c3nc4c5c(ccc4s3)OCC5)[C@@H]2C1 (racemic) [Example 106]	IC50	10 to 100 nM
C#CCN1CC[C@@H]2NC(=O)N(c3nc4c5c(ccc4s3)OCC5)[C@@H]2C1 (racemic) [Example 99]	IC50	< 10 nM

###

# ASSAY_TARGET: DYRK2 (Homo sapiens)
# Construct: purchased Carna Biosciences, Inc. 04-132
# PROTOCOL_NOTES: Inhibition test on activity of DYRK family, mobility shift assay (MSA): DYRK2
# Type: biochemical
# ASSAY_CONTEXT: read-out: Inhibitory activity DYRK 2

COMPOUND	IC50
O=C1N[C@H]2COC[C@H]2N1c1nc2c3c(ccc2s1)OCC3	10 to 100 nM
N#C[C@H]1C[C@@H]2[C@H](CO1)NC(=O)N2c1nc2c3c(ccc2s1)OCO3	100 to 1000 nM
C[C@H]1C[C@@H]2[C@H](CN1C)NC(=O)N2c1nc2c3c(ccc2s1)OCC3	≥ 1000 nM
CC1(C)C[C@@H]2[C@H](CO1)NC(=O)N2c1nc2c3c(ccc2s1)OCC3	100 to 1000 nM
CO[C@H]1C[C@H]2NC(=O)N(c3nc4c5c(ccc4s3)OCC5)[C@H]2CO1	≥ 1000 nM
O=C1N[C@H]2COCC[C@H]2N1c1nc2c3c(ccc2s1)OCC3 (racemic) [Example 121]	100 to 1000 nM
C[C@H]1[C@H]2[C@@H](CCN1C)NC(=O)N2c1nc2c3c(ccc2s1)OCC3	100 to 1000 nM
O=C1N[C@H]2CCN(C3CC3)C[C@H]2N1c1nc2c3c(ccc2s1)OCC3 (racemic) [Example 98]	≥ 1000 nM
C[C@@H]1[C@@H]2NC(=O)N(c3nc4c5c(ccc4s3)OCC5)[C@@H]2CCN1C	≥ 1000 nM
N#CCN1CC[C@H]2NC(=O)N(c3nc4c5c(ccc4s3)OCC5)[C@H]2C1 (single isomer, unassigned)	≥ 1000 nM
N#C[C@H]1C[C@H]2NC(=O)N(c3nc4c5c(ccc4s3)OCO5)[C@H]2CO1	≥ 1000 nM
C#CCN1CC[C@@H]2NC(=O)N(c3nc4c5c(ccc4s3)OCC5)[C@@H]2C1 (single isomer, unassigned) [Example 114]	100 to 1000 nM
O=C1N[C@@H]2CCOC[C@H]2N1c1nc2c3c(ccc2s1)OCC3	100 to 1000 nM
C[C@H]1C[C@H]2NC(=O)N(c3nc4c5c(ccc4s3)OCC5)C2CN1C (stereo partly shown)	≥ 1000 nM
C[C@@H]1NC(=O)N(c2nc3c4c(ccc3s2)OCC4)[C@@H]1CN1CC(F)C1	≥ 1000 nM
C#CCN1C[C@@H]2NC(=O)N(c3nc4c5c(ccc4s3)OCC5)[C@@H]2C1 (racemic)	≥ 1000 nM
